Test system: UO-31 renal
Test: NCI tumour cell line growth inhibition, 48 h
# TGI values compiled below

Solved cases (2 shown):
[[record]]
molecule = "O=C(Cc1nc2ccc(C(=O)c3ccccc3)cc2[nH]c1=O)C(=O)Nc1ccc(Br)cc1"
tested_target = "UO-31 renal"
recorded_endpoint = "TGI"
result = "> 100 µM"

[[record]]
molecule = "NC(CO)Cc1cnc[nH]1 (centres undefined)"
tested_target = "UO-31 renal"
recorded_endpoint = "TGI"
result = "> 100 µM"


Dear colleague, I am looking for the recorded TGI of the following molecule: "O=c1c2ccccc2[nH]c(=S)n1-c1ccc(N=Nc2cccc3c(O)cccc23)cc1"
> 100 µM

Here is the next molecule: "C[N+](C)(C)CC(=O)N/N=c1\cc(C(=O)Nc2ccc(N=O)cc2C#N)oc2cc(O)ccc12"
> 100 µM

Here is the next molecule: "CCOP(=O)(OCC)[C@H](O)c1ccsc1"
> 100 µM

Here is the next molecule: Cc1ccc2c(C(C[N+](=O)[O-])c3cccs3)c(-c3ccccc3)[nH]c2c1 (centres undefined)
6.68 µM

Here is the next molecule: CCCCCCCCCC[C@@H](O)[C@H]1CC[C@H]([C@H]2CC[C@H]([C@H](O)CCCCCCCCCC[C@@H]3CC(CC(C)=O)C(=O)O3)O2)O1 (some centres undefined)
> 50 µM

Here is the next molecule: "C/C(=N\NC(=S)NC(C)C)c1nc2ncccc2[nH]1"
44.9 µM

Here is the next molecule: "COc1ccc(/C(=C/n2ccnc2)C(=O)c2ccc(OC)c(OC)c2)cc1"
> 100 µM

Here is the next molecule: "N#Cc1c(N)[nH]c(=S)c(C#N)c1-c1cccc(Cl)c1"
> 100 µM

Here is the next molecule: "Cc1[nH]c(/C=C2\C(=O)Nc3ccc(S(=O)(=O)Cc4c(Cl)cccc4Cl)cc32)c(C)c1C(=O)N1CCC[C@@H]1CN1CCCC1"
3.07 µM

Here is the next molecule: "COc1ccc(C(=S)N2CCN(c3cccc(Cl)c3)CC2)cc1"
> 100 µM

Here is the next molecule: "Cc1ccn2c3c(c(C(=O)O)c2c1)C(=O)c1ccccc1C3=O"
> 100 µM

Here is the next molecule: CCCCCCCCCCCCC(=O)OC(c1cnco1)c1nc(C(O)CC(O)C(O)C(C)O)co1 (centres undefined)
> 100 µM

Here is the next molecule: "CCCCN(CC)c1nc(C)nc2c1c(C)c(C)n2-c1c(C)cc(C)cc1C"
28.9 µM

Here is the next molecule: "CN(C)/C(=N/C(=S)Nc1ccccc1)SCc1ccccc1"
95.8 µM

* * *

System: HT29 colon
Assay: NCI tumour cell line growth inhibition, 48 h
RECORDED_ENDPOINT: TGI

Solved cases (4 shown):
[[record]]
molecule = "COC(=O)C(c1[nH]nc2ccccc12)C(C(=O)OC)c1[nH]nc2ccccc12 (centres undefined)"
tested_target = "HT29 colon"
recorded_endpoint = "TGI"
result = "> 100 µM"

[[record]]
molecule = "NC(CO)Cc1cnc[nH]1 (centres undefined)"
tested_target = "HT29 colon"
recorded_endpoint = "TGI"
result = "> 100 µM"

[[record]]
molecule = "Cn1cc(NC(=O)c2cc(NC(=O)CCCCCCCCCCC(=O)Nc3cc(C(=O)Nc4cc(C(=O)NCCC(=N)N)n(C)c4)n(C)c3)cn2C)cc1C(=O)NCCC(=N)N"
tested_target = "HT29 colon"
recorded_endpoint = "TGI"
result = "> 100 µM"

[[record]]
molecule = "Cc1ccn2c3c(c(C(=O)O)c2c1)C(=O)c1ccccc1C3=O"
tested_target = "HT29 colon"
recorded_endpoint = "TGI"
result = "> 100 µM"


Dear colleague, I am looking for the recorded TGI of the following molecule: O=C1NC(c2ccc(O)cc2)C2CCC1C2 (centres undefined)
> 100 µM

Here is the next molecule: "Cc1[nH]c(/C=C2\C(=O)Nc3ccc(S(=O)(=O)Cc4c(Cl)cccc4Cl)cc32)c(C)c1C(=O)N1CCC[C@@H]1CN1CCCC1"
3.07 µM

Here is the next molecule: Nc1nc(Cl)cc(NCC2(CO)CC(CCc3ccccc3)C2)n1 (centres undefined)
> 100 µM

Here is the next molecule: "COc1ccc(-c2cc(-c3cc(Cl)ccc3Cl)nc3[nH]c(-c4cc(F)c(Cl)cc4Cl)cc(=O)c23)cc1"
> 100 µM

Here is the next molecule: Cc1cn(C2C=CC(COP(=O)(OCC3=CC(=O)c4ccccc4C3=O)N(C)CCCCCl)O2)c(=O)[nH]c1=O (centres undefined)
29.4 µM
